assay.system: BRISC BRCC36 L169R (Homo sapiens, UniProt P46736+Q15018+Q9NXR7, L169R)
method.summary: BRISC mutant IQF assay: BRCC36 L169R
pIC50: −log10 of the molar value.

- compound: "O=C(NC1C2CNCC21)c1nn(C(=O)c2c(Cl)cccc2Cl)cc1NC(=O)c1c(Cl)cccc1Cl (stereo not shown)"
  pIC50: 4.12

====

assay.system: BRISC (Homo sapiens, UniProt P46736+Q15018+Q9NXR7)
Construct: made in house; host or cells: Spodoptera frugiperda (Sf9) insect cells, MultiBac
method.summary: BRISC DUB activity assay (IQF K63-linked diubiquitin)
Format: biochemical
study.conditions: FX-171-C IC50, BRISC WT, mutant panel (Extended Data Fig. 7c)
pIC50: −log10 of the molar value.
reported.endpoint: pIC50

- molecule: "O=C(NC1C2CNCC21)c1nn(C(=O)c2c(Cl)cccc2Cl)cc1NC(=O)c1c(Cl)cccc1Cl (stereo not shown)"
  reported.endpoint: "pIC50"
  readout.value: 6.22

Numbers sourced from paper PMC7617869.
